Entries with their measured Bead Color, system PrPc (Mesocricetus auratus, UniProt P04273):

Use these answered entries as a reference point.
FQGTREA | White
EWWETV | White
VARENIA | White
TGTNRYA | White
EHATYRA | White

Proceed to the following item.
input: I have this substance here, KWATRYA , and I need its recorded Bead Color.
output: White

* * *

TARGET UNDER TEST: PrPc (Mesocricetus auratus)
Sequence (P04273 23-254 limits assumed): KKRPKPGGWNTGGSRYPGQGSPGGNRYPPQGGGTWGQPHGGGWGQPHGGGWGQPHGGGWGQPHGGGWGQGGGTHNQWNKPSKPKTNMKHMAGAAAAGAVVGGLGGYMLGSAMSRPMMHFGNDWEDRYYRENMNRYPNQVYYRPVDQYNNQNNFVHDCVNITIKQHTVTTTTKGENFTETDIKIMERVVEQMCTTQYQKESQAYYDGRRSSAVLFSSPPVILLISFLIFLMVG
ATTRIBUTE MEASURED: Bead Color

NSTKFDA | Pink
RWEREDA | Pink
SVYQLDA | White
